SYSTEM: HIV-1 APV13 envelope glycoprotein (Env) (HIV-1)
TEST_PROTOCOL: cell-based or functional assay
MEASURED_PROPERTY: IC50 neutralization (µg/mL)
One number for each entry, in µg/mL.

BINDER	MEASURED_PROPERTY	MEASURED_RESULT
PGT-125 (antibody, V domains shown) VH: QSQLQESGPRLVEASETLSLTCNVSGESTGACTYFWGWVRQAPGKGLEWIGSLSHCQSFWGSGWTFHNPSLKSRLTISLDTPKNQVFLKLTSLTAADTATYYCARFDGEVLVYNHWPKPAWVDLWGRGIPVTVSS VL: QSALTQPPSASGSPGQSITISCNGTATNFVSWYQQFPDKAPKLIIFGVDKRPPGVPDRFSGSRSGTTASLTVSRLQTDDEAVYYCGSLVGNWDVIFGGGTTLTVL	IC50 neutralization	0.0128

Field IC50 neutralization (entry PGT-135 (antibody, V domains shown) VH: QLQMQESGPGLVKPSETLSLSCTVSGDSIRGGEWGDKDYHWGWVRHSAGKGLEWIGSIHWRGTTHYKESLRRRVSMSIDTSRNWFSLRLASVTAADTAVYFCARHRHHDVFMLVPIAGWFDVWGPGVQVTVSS VL: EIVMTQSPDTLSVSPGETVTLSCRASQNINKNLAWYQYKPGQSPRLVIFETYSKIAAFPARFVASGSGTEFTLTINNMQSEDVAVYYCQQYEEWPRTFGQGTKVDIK ) reads 0.545

Data provenance: patent US20200024330A1
